# System: 786-0 renal
# TEST METHOD NOTES: NCI tumour cell line growth inhibition, 48 h
Please provide measured GI50 for the entries that follow.

**Query** Find the recorded GI50 belonging to CCn1c(-c2nonc2N)nc2ccc(F)cc21 and report it.
**Result** > 25 µM

**Query** Now this one: C=C1C(=O)O[C@H]2[C@H]1CC/C(COC(=O)c1cc3cc(OC)ccc3[nH]1)=C\CC[C@@]1(C)O[C@@H]21
**Result** 1.27 µM

**Query** Now this one: Clc1ccc(OCc2nnc3n2N=C(c2ccc(Cl)cc2Cl)CS3)c(Cl)c1
**Result** 28.5 µM

**Query** Now this one: Cc1ncc(NC(=O)c2ccc(CN3CCN(C)CC3)c(C(F)(F)F)c2)cc1Nc1nccc(-c2cccnc2)n1
**Result** 15.9 µM

**Query** Now this one: Oc1ccc(Cc2ccccc2)c2cccnc12
**Result** 2.04 µM

###

# System: PC-3 prostate
# TEST METHOD NOTES: NCI tumour cell line growth inhibition, 48 h; in the data active = GI50 below about 0.43 µM; inactive = the rest
Select the correct class. Options are active, inactive and nothing else.

**Query** GET /call?item= O=C(Nc1cc(-c2ccccc2)[nH]n1)c1ccc(Cl)cc1 returns the recorded outcome of this test.
**Result** inactive

**Query** Now this one: COC(=O)C(Cc1ccccc1)N/C=C\C(=O)c1ccc(Cl)cc1 (configuration not stated)
**Result** inactive

**Query** Now this one: NC(N)=N/N=C/c1c(-c2ccccn2)nc2sc(Cl)cn12
**Result** inactive

**Query** Now this one: Cc1ccc(C(=O)CC(Sc2cccc(Cl)c2Cl)c2ccc(Cl)cc2)cc1C (configuration not stated)
**Result** inactive

**Query** Now this one: C=CC(=O)N1CCN(c2ncnc3c(F)c(-c4c(O)cccc4F)c(Cl)cc23)CC1
**Result** inactive

**Query** Now this one: CCN(Cc1c(F)cccc1F)c1ccc(CO)c(Cl)c1
**Result** inactive

**Query** Now this one: O=C1c2ccccc2-c2c1c1ccccc1c(=O)n2CCNCCCNCCn1c2c(c3ccccc3c1=O)C(=O)c1ccccc1-2
**Result** active

###

# Tested on: DU-145 prostate
# TEST METHOD NOTES: NCI tumour cell line growth inhibition, 48 h
VALUE KIND: TGI

**Query** Find the recorded TGI belonging to CC1=C(C(=O)NNC(=O)CC#N)CC(C(=O)NNC(=O)CC#N)=C(C)N1 and report it.
**Result** > 100 µM

**Query** Now this one: CCOC1NC(=O)c2ccccc21 (stereo not given)
**Result** > 100 µM

**Query** Now this one: COc1ccc2c(c1)[C@@]13CCN4CC5=CCO[C@H]6CC(=O)N2[C@H]1[C@H]6[C@H]5C[C@H]43
**Result** > 100 µM

**Query** Now this one: CN1CCN(Cc2ccc(NC(=O)c3ccc(C(C)(C)C)c(C#Cc4cnc5cccnn45)c3)cc2C(F)(F)F)CC1
**Result** 3.39 µM

**Query** Now this one: CCN(CC)CCCNc1ccc([N+](=O)[O-])c2nc3ccc(OC)cc3c(NCCCN(CC)CC)c12
**Result** > 10 µM

###

Please provide measured TGI for the entries that follow.
# Test system: DU-145 prostate
# TEST METHOD NOTES: NCI tumour cell line growth inhibition, 48 h
Please give a number only; it is taken to be in µM.

**Query** Find the recorded TGI belonging to CC(C)(C)c1ccc2c(c1)OCc1n[nH]c(n1)COc1cc(C(C)(C)C)ccc1OCCOCCO2 and report it.
**Result** 20.6

**Query** Now this one: COCC(=O)OC1CCn2c1nc1c2C(=O)C(C)=C(NC(C)=O)C1=O (stereo not given)
**Result** 22.2

**Query** Now this one: CC(C)(C)c1nc2c(o1)C(=Nc1ccc(F)cc1)c1ccccc1C2=O
**Result** 29.4

**Query** Now this one: COC(=O)C(CCSC)NC(=O)CSc1nnc(COc2ccc(Cl)cc2)n1-c1ccccc1 (stereo not given)
**Result** 33
